Reference for the values: ChEMBL document CHEMBL3217548

Tested on: Calf thymus DNA
Assay: Binding affinity to calf thymus DNA assessed as DNA intercalation at 1 to 50 uM by circular dichroism analysis
Format: nucleic-acid assay
Conditions: Bos taurus
Calls of active or inactive are those of the source. The rule behind the calls is not given here.
Form entry, call: pick from active, inactive

Task: Which result was noted for this molecule in the test: N#Cc1cc2ccc(N3CCCCC3)cc2n2c1nc1ccccc12
Output: inactive

Task: Assay result, entry CCCCCN(CCCCC)c1ccc2cc(C#N)c3nc4ccccc4n3c2c1 — outcome?
Output: inactive

Task: What is the recorded call for this molecule in the test? N#Cc1cc2ccc(N3CCOCC3)cc2n2c1nc1ccccc12
Output: active

Task: Answer briefly: the call reported for C[N+]1(C)CCN(c2ccc3cc(C#N)c4nc5ccccc5n4c3c2)CC1.[I-] in this assay.
Output: active

Task: Each molecule tested received a call. Report the one for CN(C)CCCNc1ccc2cc(C#N)c3nc4ccccc4n3c2c1 .
Output: active

Task: What call does the record list for CC(C)CNc1ccc2cc(C#N)c3nc4ccccc4n3c2c1 ?
Output: inactive
